Entry source: patent US11780832B2

System: Escherichia coli CMY-DHA
assay_explanation: Synergistic activity: MIC in the presence of Avibactam
Assay type: cell-based
assay_setup: strain of row r30, in the presence of Avibactam @ 4 μg/mL
metric_name: MIC

compound="Nc1nc(/C(=N/OC2(C(=O)O)CCOCC2)C(=O)N[C@H]2CON(C3(C(=O)O)C[C@H](N4C(=O)c5cc(O)c(O)cc5C4=O)C(=O)O3)C2=O)cs1 (stereo partly drawn) [Cmpd 8]" reading="<=0.008 μg/mL"
compound="Nc1nc(/C(=N/OC2(C(=O)O)CC2)C(=O)N[C@H]2CON(C3(C(=O)O)C[C@H](N4C(=O)c5cc(O)c(O)cc5C4=O)C(=O)O3)C2=O)ns1 (stereo partly drawn) [Cmpd 18]" reading="<=0.008 μg/mL"
compound="Nc1nc(/C(=N/OC2(C(=O)O)CC2)C(=O)N[C@H]2CON(C3(C(=O)O)C[C@H](N4C(=O)c5cc(O)c(O)cc5C4=O)C(=O)O3)C2=O)cs1 (stereo partly drawn) [Cmpd 1]" reading="<=0.008 μg/mL"

---

System: Escherichia coli CMY-DHA
assay_explanation: Synergistic activity: MIC in the presence of Avibactam
Assay type: cell-based
assay_setup: strain of row r28, in the presence of Avibactam @ 4 μg/mL
metric_name: MIC (mg/L)
// note: answer is a bare numeric in mg/L

(Q) Which MIC is listed for Nc1nc(/C(=N/OC2(C(=O)O)CC2)C(=O)N[C@H]2CON(C3(C(=O)O)C[C@H](N4C(=O)c5cc(O)c(O)cc5C4=O)C(=O)O3)C2=O)ns1 (stereo partly shown) [Cmpd 18] ?
(A) 0.03

(Q) Which MIC is listed for Nc1nc(/C(=N/OC2(C(=O)O)CCC(F)(F)CC2)C(=O)N[C@H]2CON(C3(C(=O)O)C[C@H](N4C(=O)c5cc(O)c(O)cc5C4=O)C(=O)O3)C2=O)cs1 (stereo partly shown) [Cmpd 10] ?
(A) 0.03

(Q) Which MIC is listed for CC(C)(O/N=C(\C(=O)N[C@@H]1C(=O)N2C(C(=O)[O-])=C(C[n+]3ccccc3)CS[C@H]12)c1csc(N)n1)C(=O)O [Ceftazidime, ceftazidime, reference compound] ?
(A) 0.06

(Q) Which MIC is listed for Nc1nc(/C(=N/OC2(C(=O)O)CC2)C(=O)N[C@H]2CON(C3(C(=O)O)C[C@H](N4Cc5cc(O)c(O)cc5C4=O)C(=O)O3)C2=O)cs1 (stereo partly shown) [Cmpd 28] ?
(A) 0.06

(Q) Which MIC is listed for Nc1nc(/C(=N/OC2(C(=O)O)CCOCC2)C(=O)N[C@H]2CON(C3(C(=O)O)C[C@H](N4C(=O)c5cc(O)c(O)nc5C4=O)C(=O)O3)C2=O)cs1 (stereo partly shown) [Cmpd 26] ?
(A) 0.06

---

System: Proteus mirabilis CMY-DHA
assay_explanation: MIC against CMY-DHA producing strains, compound alone
Assay type: cell-based
assay_setup: row r36
metric_name: log10 MIC (log10 of the value in µg/mL)
Give log10 of MIC, with MIC taken in µg/mL.

(Q) Request - read-out log10 MIC | tested on Proteus mirabilis CMY-DHA | molecule Nc1nc(/C(=N/OC2(C(=O)O)CCOCC2)C(=O)N[C@H]2CON(C3(C(=O)O)C[C@H](N4C(=O)c5cc(O)c(O)cc5C4=O)C(=O)O3)C2=O)cs1 (stereo partly shown)
(A) 0.60

(Q) Request - read-out log10 MIC | tested on Proteus mirabilis CMY-DHA | molecule Nc1nc(/C(=N/OC2(C(=O)O)CC2)C(=O)N[C@H]2CON(C3(C(=O)O)C[C@H](N4C(=O)c5cc(O)c(O)cc5C4=O)C(=O)O3)C2=O)cs1 (stereo partly shown)
(A) 0.30

(Q) Request - read-out log10 MIC | tested on Proteus mirabilis CMY-DHA | molecule Nc1nc(/C(=N/OC2(C(=O)O)CC2)C(=O)N[C@H]2CON(C3(C(=O)O)C[C@H](N4C(=O)c5cc(O)c(O)cc5C4=O)C(=O)O3)C2=O)ns1 (stereo partly shown)
(A) 0.00

(Q) Request - read-out log10 MIC | tested on Proteus mirabilis CMY-DHA | molecule Nc1nc(/C(=N/OC2(C(=O)O)CCC(F)(F)CC2)C(=O)N[C@H]2CON(C3(C(=O)O)C[C@H](N4C(=O)c5cc(O)c(O)cc5C4=O)C(=O)O3)C2=O)cs1 (stereo partly shown)
(A) -0.92

(Q) Request - read-out log10 MIC | tested on Proteus mirabilis CMY-DHA | molecule Nc1nc(/C(=N/OC2(C(=O)O)CCOCC2)C(=O)N[C@H]2CON(C3(C(=O)O)C[C@H](N4C(=O)c5cc(O)c(O)nc5C4=O)C(=O)O3)C2=O)cs1 (stereo partly shown)
(A) 0.60

(Q) Request - read-out log10 MIC | tested on Proteus mirabilis CMY-DHA | molecule Nc1nc(/C(=N/OC2(C(=O)O)CC2)C(=O)N[C@H]2CON(C3(C(=O)O)C[C@H](N4Cc5cc(O)c(O)cc5C4=O)C(=O)O3)C2=O)cs1 (stereo partly shown)
(A) 0.30

(Q) Request - read-out log10 MIC | tested on Proteus mirabilis CMY-DHA | molecule CC(C)(O/N=C(\C(=O)N[C@@H]1C(=O)N2C(C(=O)[O-])=C(C[n+]3ccccc3)CS[C@H]12)c1csc(N)n1)C(=O)O [Ceftazidime, ceftazidime, reference compound]
(A) 1.20
